This collection of values is drawn from patent US5716963A.

Each entry below carries its reported IC50.
test system: A-549; test: IC50 growth inhibition, A-549 monolayer culture (crystal violet); type: cell-based; details: Homo sapiens, A549, 72 h, three days, 37° C., 10% CO2, crystal violet 0.1%, approximate IC50, in duplicate
measurement_name: IC50 (µg/mL)

* O=C1c2cc(F)cnc2C(=O)c2ncc(F)cc21 [(I-i)] | 0.1
* CCc1cc2c([nH]c1=O)C(=O)c1[nH]c(=O)cc(C)c1C2=O [(I-c)] | 0.025
* Cc1cc(=O)[nH]c2c1C(=O)c1cc(F)cnc1C2=O [(I-e)] | 0.02

====

test system: HT-29; experiment: IC50 growth inhibition, HT-29 monolayer culture (crystal violet); format: cell-based; conditions: Homo sapiens, 72 h, three days, 37° C., 10% CO2, crystal violet 0.1%, approximate IC50, in duplicate
measurement_name: IC50

• CC1=C(C)CC2C(=O)c3c(C)cc(=O)[nH]c3C(=O)C2C1 (stereo not drawn) [(I-a)] = 1 mg/L
• O=C1c2ccccc2C(=O)c2ncc(F)cc21 [(I-l), 3-fluoro-1-azaanthracen-9,10-dione] = 0.25 mg/L
• Cc1cc(=O)[nH]c2c1C(=O)c1cc(N(C)C)cnc1C2=O [(I-f)] = 0.02 mg/L
• Cc1cnc2c(c1)C(=O)c1cc(-c3ccccc3)c(=O)[nH]c1C2=O [(I-j)] = 10 mg/L
• CCc1cc2c([nH]c1=O)C(=O)c1[nH]c(=O)cc(C)c1C2=O [(I-c)] = 0.1 mg/L
• CC(=O)c1cc2c([nH]c1=O)C(=O)c1ncc(C)cc1C2=O [(I-d)] = 1 mg/L
• Cc1cc(=O)[nH]c2c1C(=O)c1cc(F)cnc1C2=O [(I-e)] = 0.05 mg/L
• Cc1cc(=O)[nH]c2c1C(=O)C1=C(NC=CC1c1ccccc1[N+](=O)[O-])C2=O (stereo not drawn) [(I-g)] = 0.05 mg/L
• Cc1cc(=O)[nH]c2c1C(=O)c1cc(C)c(=O)[nH]c1C2=O [(I-h)] = 0.05 mg/L
• O=C1c2cc(F)cnc2C(=O)c2ncc(F)cc21 [(I-i)] = 0.1 mg/L
• CCOc1nc2c(cc1C)C(=O)c1ccccc1C2=O [(I-b)] = 10 mg/L
• CC1C(F)=CNC2=C1C(=O)c1ccccc1C2=O (stereo not drawn) [(I-k)] = 0.25 mg/L

====

system: A-549; assay: IC50 growth inhibition, A-549 monolayer culture (crystal violet); assay type: cell-based; details: Homo sapiens, A549, 72 h, three days, 37° C., 10% CO2, crystal violet 0.1%, approximate IC50, in duplicate
Each entry below carries its reported IC50.
measurement_name: IC50

* CC(=O)c1cc2c([nH]c1=O)C(=O)c1ncc(C)cc1C2=O | 0.25 µg/mL
* Cc1cc(=O)[nH]c2c1C(=O)C1=C(NC=CC1c1ccccc1[N+](=O)[O-])C2=O (stereo not drawn) | 0.05 µg/mL
* CC1C(F)=CNC2=C1C(=O)c1ccccc1C2=O (stereo not drawn) | 0.25 µg/mL
* CC1=C(C)CC2C(=O)c3c(C)cc(=O)[nH]c3C(=O)C2C1 (stereo not drawn) | 0.25 µg/mL
* Cc1cnc2c(c1)C(=O)c1cc(-c3ccccc3)c(=O)[nH]c1C2=O | 5 µg/mL
* O=C1c2ccccc2C(=O)c2ncc(F)cc21 | 0.05 µg/mL
* Cc1cc(=O)[nH]c2c1C(=O)c1cc(C)c(=O)[nH]c1C2=O | 0.05 µg/mL
* CCOc1nc2c(cc1C)C(=O)c1ccccc1C2=O | 0.25 µg/mL
* Cc1cc(=O)[nH]c2c1C(=O)c1cc(N(C)C)cnc1C2=O | 0.02 µg/mL
